System under test: Phospholipid hydroperoxide glutathione peroxidase GPX4 (Homo sapiens)
Protocol summary: Primary qHTS Assay for Inhibitors of Recombinant Selenoprotein Glutathione Peroxidase 4 (GPX4) (AID 1845192); note: nearly all actives have a fitted effect of over 65% in size
Experimental parameters: recombinant GPX4, GR-coupled NADPH fluorescence, 15 min; series mostly up to 50 µM
Inconclusive results are not listed. Activity calls are given as the source filed them. Calls come from the whole dose curve; as a rule, active = well fitted inhibition curve with a large enough effect; inconclusive = small, poorly fitted or top-dose-only effect; inactive = flat fitted curve, though single readings scatter.
Reply using exactly one outcome from yes (active), no (inactive)

Worked cases, answers included:
CCCCCCCCCCCCCCCC[N+](C)(C)Cc1ccccc1
no
C[C@H]1C[C@@H]2[C@H]([C@@H](O)C[C@@]3(C)[C@H]2CC[C@]3(O)C(=O)CO)[C@@]2(C)C=CC(=O)C=C12
no
Cc1nc(C2CCCCC2)c(-c2ccc(S(N)(=O)=O)c(F)c2)o1
no
CCCCCOc1ccc(C2SC(=O)NC2=O)cc1OCC (stereo not given)
yes
Nc1ncnc2n[nH]c(Nc3ccc(F)cc3)c12
no

I would be grateful if you could indicate the recorded call for CC1CCCCN1CCCOC(=O)c1ccc(OC2CCCCC2)cc1 (stereo not given) .
no

Hello, I am checking results. What call was entered for C[N+]1(C)CCC(OC(=O)C(O)(c2ccccc2)C2CCCC2)C1 (stereo not given) ?
no

What was the test verdict on CC(=O)N[C@@H](CCC(N)=O)C(=O)O ?
no

Could you check what this test reported for C=CC[N+]1([C@H]2C[C@H]3[C@@H]4CC[C@H]5C[C@H](OC(C)=O)[C@@H](N6CCCCC6)C[C@]5(C)[C@H]4CC[C@]3(C)[C@H]2OC(=O)CC)CCCCC1 ?
no

Which outcome did this test record for the compound CC1c2ccccc2CN1NC(=O)c1ccc(Cl)c(S(N)(=O)=O)c1 (stereo not given) ?
no
